Tested on: DLK
Construct: gene MAP3K12
Conditions: concentration: 1 μM,replicates: in singlicate; n = 1;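 also: KINOMEscan kinase panel screen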
Quick rule for you: %Inh at 2% or higher means Yes, lower means No.

[[record]]
compound = "Cc1nnc(-c2ccc3occ(-c4ccc(S(C)=O)cc4)c3n2)o1 (stereo not drawn)"
system = "DLK"
assigned_category = "No"

[[record]]
compound = "Cc1ccc(Nc2ccnc(Nc3ccc4c(c3)CS(=O)(=O)C4)n2)cc1O.Cl"
system = "DLK"
assigned_category = "Yes"

[[record]]
compound = "COc1cccc(CNC(=O)NC2CCN(c3ccnc(Nc4cc(OC)c(OC)c(OC)c4)n3)C2)c1 (stereo not drawn)"
system = "DLK"
assigned_category = "Yes"


stdin: %Inh >= 2% for `CC(=O)c1c(-c2ccncc2)[nH]c(-c2ccncc2)c1C` ?
stdout: No

stdin: %Inh >= 2% for CC(C(=O)NC1CCN(c2ccnc(Nc3ccc(F)cc3)n2)C1)c1ccc(Cl)cc1 (stereo not drawn) ?
stdout: Yes

----------
Test system: DAPK1
Conditions: concentration: 1 μM,replicates: in singlicate; n = 1
recorded metric: %Inh (%)
Numbers only; they are read as %.

stdin: Recall the reported %Inh of `Cn1ccc2ncnc(Oc3ccc(NC(=O)Nc4cncc(C(F)(F)F)c4)c(Cl)c3)c21` when tested on DAPK1.
stdout: 0

stdin: Recall the reported %Inh of `O=C(NCC1CC1)c1ccc(-c2cc(C(=O)NC3CC3)ccc2F)cc1` when tested on DAPK1.
stdout: 0

stdin: Recall the reported %Inh of `CN1CCN(CCCNc2nccc(-c3c(-c4ccc(F)cc4)nn4cc(C(N)=O)ccc34)n2)CC1` when tested on DAPK1.
stdout: 29

----------
Listed next: entries and their corresponding %Inh.
Tested on: CDK11
Construct: gene CDK19
Conditions: concentration: 1 μM,replicates: in singlicate; n = 1
Numbers only; they are read as %.

Example compounds with recorded %Inh:
[[record]]
compound = "COC(=O)c1cccc(NC(=O)NC2CCN(c3ccnc(NCc4ccc(F)cc4)n3)CC2)c1"
measurement = 12

[[record]]
compound = "Cc1nnc(-c2ccc3occ(-c4ccc(S(C)=O)cc4)c3n2)o1 (stereo not drawn)"
measurement = 0

[[record]]
compound = "O=C(Nc1n[nH]c2cc(-c3ccco3)ccc12)C1CC1"
measurement = 0

[[record]]
compound = "CCn1c(-c2nonc2N)nc2cncc(Br)c21"
measurement = 14

[[record]]
compound = "O=C(NOCC1CC1)c1cc(Br)c(F)c(F)c1Nc1ccc(I)cc1Cl"
measurement = 0

[[record]]
compound = "CN(c1ccccc1CNc1nc(Nc2ccc3c(c2)CC(=O)N3)ncc1C(F)(F)F)S(C)(=O)=O"
measurement = 0

[[record]]
compound = "C[C@@H]1CCN(C(=O)N2CCCC2)C[C@@H]1N(C)c1ncnc2[nH]ccc12"
measurement = 2

[[record]]
compound = "Cn1ccc2ncnc(Oc3ccc(NC(=O)Nc4cncc(C(F)(F)F)c4)c(Cl)c3)c21"
measurement = 97.7

[[record]]
compound = "CCOC(=O)N1CCC(n2cnc(-c3ccc(F)cc3)c2-c2ccnc(N)n2)CC1"
measurement = 29

[[record]]
compound = "CN1CCN(CCNc2nc3cc(Oc4ccc(NC(=O)Nc5cc(C(F)(F)F)ccc5F)cc4)ccc3[nH]2)CC1.Cl.Cl"
measurement = 47


stdin: Provide measured %Inh value, entry: `Cn1ccc2ncnc(Oc3ccc(NC(=O)Nc4cccc(C(F)(F)F)c4)c(F)c3)c21`
stdout: 99.3

stdin: Provide measured %Inh value, entry: `CN(c1ccc2c(c1)nc(NCc1ccc(F)cc1)n2C)c1ccnc(Nc2ccc(CS(C)(=O)=O)cc2)n1.Cl`
stdout: 26

stdin: Provide measured %Inh value, entry: `COc1cc2nccc(Nc3ccc(Oc4ccccc4)cc3)c2cc1OC.Cl`
stdout: 0

stdin: Provide measured %Inh value, entry: `Nc1nccc(-c2ccc3c(N)n[nH]c3c2)n1`
stdout: 37

stdin: Provide measured %Inh value, entry: `Cc1ccn2nc(-c3ccc(F)cc3)c(-c3ccncc3)c2c1.Cl`
stdout: 1

All values here come from paper PMC5540273.
